# system-under-test: Sodium-dependent serotonin transporter (Homo sapiens, UniProt P31645)
# Sequence (P31645 whole entry): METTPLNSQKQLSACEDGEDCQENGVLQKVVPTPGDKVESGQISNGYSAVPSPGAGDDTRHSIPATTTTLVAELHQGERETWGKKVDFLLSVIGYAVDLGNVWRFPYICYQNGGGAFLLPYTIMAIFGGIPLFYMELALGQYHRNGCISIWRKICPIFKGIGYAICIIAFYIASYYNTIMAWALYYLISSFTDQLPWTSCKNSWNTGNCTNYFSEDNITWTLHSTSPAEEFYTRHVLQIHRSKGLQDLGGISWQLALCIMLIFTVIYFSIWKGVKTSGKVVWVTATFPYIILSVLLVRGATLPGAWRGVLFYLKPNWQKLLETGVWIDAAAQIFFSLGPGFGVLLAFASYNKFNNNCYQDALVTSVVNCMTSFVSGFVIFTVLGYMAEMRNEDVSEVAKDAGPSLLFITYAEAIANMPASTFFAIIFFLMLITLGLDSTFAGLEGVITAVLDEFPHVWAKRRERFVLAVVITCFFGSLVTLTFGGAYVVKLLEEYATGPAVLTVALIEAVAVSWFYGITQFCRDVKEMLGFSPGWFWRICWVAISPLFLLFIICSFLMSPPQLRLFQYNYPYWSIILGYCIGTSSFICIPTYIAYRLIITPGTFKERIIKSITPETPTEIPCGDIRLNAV
# assay: Inhibition of [3H]-5-HT reuptake in human SERT transfected into HEK293 cells by liquid scintillation counting method
# Assay type: cell-based
quantity-measured: IC50

[[record]]
smiles_string = "Cc1cccc(C)c1N1CCN(CCCN2CCC(Cc3ccccc3)CC2)CC1"
result = "2000 nM"


# input Find the measured IC50: item `Brc1ccc(N2CCN(CCCN3CCC(Cc4ccccc4)CC3)CC2)cc1` , target or system Sodium-dependent serotonin transporter (Homo sapiens, UniProt P31645).
# output 2250 nM

# input Which IC50 is reported with Sodium-dependent serotonin transporter (Homo sapiens, UniProt P31645) for this entry: `Clc1cccc(N2CCN(CCCN3CCC(Cc4ccccc4)CC3)CC2)c1` ?
# output 1180 nM

# input Test system Sodium-dependent serotonin transporter (Homo sapiens, UniProt P31645); read-out IC50; what value for `c1ccc(CC2CCN(CCCN3CCN(c4ccccc4)CC3)CC2)cc1` ?
# output 1360 nM
